Biological target: Nek7^SRS (Homo sapiens, UniProt Q8TDX7, L180F/L86H/Y97F)
Construct: Nek7 strong R-spine mutant, C-terminal non-cleavable His6-tag
Sequence (Q8TDX7 whole entry L86H/Y97F/L180F): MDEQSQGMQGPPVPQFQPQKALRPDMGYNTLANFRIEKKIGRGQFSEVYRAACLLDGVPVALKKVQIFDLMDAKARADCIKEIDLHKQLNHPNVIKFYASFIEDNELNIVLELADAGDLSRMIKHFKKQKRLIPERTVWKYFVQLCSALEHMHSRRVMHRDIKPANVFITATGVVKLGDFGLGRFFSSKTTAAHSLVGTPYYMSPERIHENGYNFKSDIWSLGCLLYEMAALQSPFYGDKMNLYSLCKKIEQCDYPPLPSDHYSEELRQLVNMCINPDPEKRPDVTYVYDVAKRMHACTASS
Test: X-ray co-crystal structure, […] Å; IC50 from LabChip EZ Reader kinase assay
experimental-readout: pIC50
Scale: pIC50 equals -log10([C]), with [C] in mol/L.

Would you kindly share the measured pIC50 for CN(C)CCCNS(=O)(=O)c1cccc(Nc2nc(OCC3CCCCC3)c3nc[nH]c3n2)c1 ? 4.40
